Reference for the values: patent US20230374147A1

system_under_test: T1, His-tagged cynomolgous macaque BCMA (Acro Biosystems, BCA-C52H7) (cynomolgus macaque, UniProt Q02223 1-54 (human entry))
T1 construct: Bought protein; also called cyno BCMA; CyBCMA; not shown: His tag
protocol: ELISA, hybridoma supernatant, coated His-tagged antigen; also: test concentration or dose not given here
measured_quantity: ELISA values (OD 450 nm) (OD)
Return type: number; implicit unit OD.

[
  {
    "binder": "552-LN2-E6 (antibody produced by the hybridoma) (antibody, V domains shown, Mouse antibody from B cell hybridoma (culture supernatant or IgG purified from it)) VH: QIQLVQSGPELKKPGETVKISCMASGYTFTDYSVRWVKQAPGKGLEWMGWINTETGEPTYADDFKGRFAFSLETSASTAYLQINNLKNEDTATYFCAISYYYALDYWGHGTSVTVSS VL: DIVLTQSPASLTVSLGQRATISCRASKSVSTSVYSFLHWYQQKPGQPPKLLIYLASNLESGVPARFSGSGSGTDFTLNIHPVEEEDAATYYCQHSRELPRTFGGGTKLEIK",
    "ELISA values (OD 450 nm), OD": 0.729
  }
]

input: Item 539-SP5-D7 (antibody produced by the hybridoma) (antibody, V domains shown, Mouse antibody from B cell hybridoma (culture supernatant or IgG purified from it)) VH: EVMLVDSGGNLVKPGGSLKLSCAASGFTFSNYVISWVRQTPEKRLEWVATISTVGTNTYYPDSVRGRFTISRDNAENTLYLQMSSLRSEDTAIYYCSRHKYGYDDPSYAMDYWGQGTSVTVSS VL: QLVLTQSSSASFSLGASAKLTCTLSSQHSTYTIEWYQQQPLKPPKYVMELKKDGSHSTGDGIPDRFSGSSSGADRYLSISNIQAEDEAIYICGVGDTVKEQFVYVFGGGTKVTVL has what recorded ELISA values (OD 450 nm)?
output: 0.252
